- SYSTEM NAME: T1, human BCMA on BCMA expressing cell lines (human, UniProt Q02223 1-184)
- T1 sequence: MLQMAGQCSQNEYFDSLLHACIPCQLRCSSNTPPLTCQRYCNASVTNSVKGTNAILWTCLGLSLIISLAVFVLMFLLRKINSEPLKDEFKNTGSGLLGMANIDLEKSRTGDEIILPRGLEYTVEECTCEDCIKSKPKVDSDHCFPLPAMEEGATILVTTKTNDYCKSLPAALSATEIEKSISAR
- PROTOCOL SUMMARY: cell-based or functional assay
TEST READOUT: TDCC EC50 (EJM cells) (pM)
// note: answer is a bare numeric in pM

Known TDCC EC50 (EJM cells) results, listed for orientation:
BCMA targeting trispecific protein 02B12 (other, not shown: large carriers; small tags and cut ends, trispecific) VHH: EVQLVESGGGLVQPGRSLTLSCAASTNISSISPMGWYRQAPGKQRELVAAIHGFDTLYADSVKGRFTISRDNAKNSIYLQMNSLRPEDTALYYCNKVPWGDYHPRNVYWGQGTQVTVSS :: 124
BCMA targeting trispecific protein 01G08 (other, not shown: large carriers; small tags and cut ends, trispecific; also called 01G08 TriTAC) VHH: EVQLVESGGGLVQPGRSLTLSCAASTNIQSISPMGWYRQAPGKQRELVAAIHGFETLYADSVKGRFTISRDNAKNSIYLQMNSLRPEDTALYYCNKVPWGDYHPGNVYWGQGTQVTVSS :: 1.91
BCMA targeting trispecific protein 02E06 (other, not shown: large carriers; small tags and cut ends, trispecific; also called 02E06 TriTAC) VHH: EVQLVESGGGLVQPGRSLTLSCAASTNIFSDSPMGWYRQAPGKQRELVAAIHGFSTFYADSVKGRFTISRDNAKNSIYLQMNSLRPEDTALYYCNKVPWGDYHPGNVYWGQGTQVTVSS :: 1.57

The binder identified as BCMA targeting trispecific protein 01D07 (other, not shown: large carriers; small tags and cut ends, trispecific) VHH: EVQLVESGGGLVQPGRSLTLSCAASTNIFSASPMGWYRQAPGKQRELVAAIHGSSTLYADSVKGRFTISRDNAKNSIYLQMNSLRPEDTALYYCNKVPWGDYHPRNVNWGQGTQVTVSS registered its TDCC EC50 (EJM cells) at 19.6

The binder identified as BCMA targeting trispecific protein 01G01 (other, trispecific; not shown: the C-terminal 6xHis tag follows those missing domains and is left out) VHH: EVQLVESGGGLVQPGRSLTLSCAASTNIVSISPMGWYRQAPGKQRELVAAIHGDSTLYADSVKGRFTISRDNAKNSIYLQMNSLRPEDTALYYCNKVPWGDYHPRRVYWGQGTQVTVSS registered its TDCC EC50 (EJM cells) at 5.83
